// provenance: patent US20110144345A1

Listed below: melting point values for each entry.

1) CSC(=O)Oc1c(C(=O)c2ccc(OCCC3OCCO3)c(N=S3(=O)CCCCC3)c2Cl)cnn1C : 159 to 161 °C
2) COc1ccc(C(=O)c2cnn(C)c2O)c(F)c1N=S1(=O)CCCCC1 : 107 to 109 °C
3) COc1ccc(C(=O)c2cnn(C)c2OCC(F)(F)F)c(Cl)c1N=S1(=O)CCCCC1 : 131 to 132 °C
4) CCn1ncc(C(=O)c2ccc(OC)c(N=S3(=O)CCCC3)c2Cl)c1O : 171 to 173 °C
5) COC(=O)/C=C/c1ccc(C(=O)c2cnn(C)c2O)c(Cl)c1N=S1(=O)CCCCC1 : 145 to 150 °C
6) Cn1ncc(C(=O)c2ccc(-c3cccs3)c(N=S3(=O)CCCCC3)c2Cl)c1O : 158 to 164 °C
7) CCOc1c(C(=O)c2cnn(CC)c2O)ccc(OC)c1N=S1(=O)CCCCC1 : 124 to 126 °C
8) COc1ccc(C(=O)c2cnn(C)c2O)c([N+](=O)[O-])c1N=S1(=O)CCCCC1 : 179 to 181 °C
9) Cn1ncc(C(=O)c2ccc(OCc3ccccc3)c(N=S3(=O)CCCCC3)c2Cl)c1O : 95 to 97 °C
10) CCOc1ccc(C(=O)c2cnn(C)c2O)c(OC)c1N=S1(=O)CCCCC1 : 109 to 111 °C

Challenge: Bench note: what melting point did Cn1ncc(C(=O)c2ccc(OC(F)F)c(N=S3(=O)CCCCC3)c2Cl)c1O show?
Response given: 158 to 161 °C

Challenge: Moving on to the next molecule: CC(=O)OCc1ccc(C(=O)c2cnn(C)c2O)c(Cl)c1N=S1(=O)CCCCC1
Response given: 64 to 68 °C

Challenge: Try this molecule next: CCOc1ccc(C(=O)c2cnn(C)c2O)c(Cl)c1N=S1(=O)CCCCC1
Response given: 88 to 90 °C

Challenge: Next molecule up: CON=Cc1ccc(C(=O)c2cnn(C)c2O)c(Cl)c1N=S1(=O)CCCCC1
Response given: 98 to 105 °C

Challenge: And then COCCOc1ccc(C(=O)c2cnn(C)c2O)c(Cl)c1N=S1(=O)CCCCC1 , what is it?
Response given: 153 to 155 °C

Challenge: Same again, this time with COc1ccc(C(=O)c2c(C3CC3)nn(C)c2O)c(Cl)c1N=S1(=O)CCCCC1
Response given: 145 to 147 °C

Challenge: Please do the same for CCn1ncc(C(=O)c2ccc(OC)c(N=S3(=O)CCCCC3)c2[N+](=O)[O-])c1O as well.
Response given: 190 to 192 °C

Challenge: Input Cn1ncc(C(=O)c2ccc(OCCC3OCCO3)c(N=S3(=O)CCCCC3)c2Cl)c1O
Response given: 99 to 101 °C

Challenge: Cool, now C#CCOc1ccc(C(=O)c2cnn(C)c2O)c(Cl)c1N=S1(=O)CCCCC1
Response given: 169 to 171 °C

Challenge: Quick one: COc1ccc(C(=O)c2cnn(C)c2OC(=O)SC)c(Cl)c1N=S1(=O)CCCCC1
Response given: 163 to 165 °C

Challenge: Another molecule to look at: COc1ccc(C(=O)C2=C(O)CCCC2=O)c(Cl)c1N=S(C)(C)=O
Response given: 150 to 152 °C

Challenge: What do you have for O=C1CCCC(O)=C1C(=O)c1ccc(OCc2ccccc2)c(N=S2(=O)CCCCC2)c1Cl ?
Response given: 152 to 155 °C

Challenge: Again, but for COCCOCOc1ccc(C(=O)c2cnn(C)c2O)c(Cl)c1N=S1(=O)CCCCC1
Response given: 77 to 79 °C

Challenge: Likewise for Cn1ncc(C(=O)c2ccc(C#N)c(N=S3(=O)CCCCC3)c2Cl)c1O ?
Response given: 192 to 196 °C

Challenge: What would you report for N#Cc1ccc(C(=O)C2=C(O)CCCC2=O)c(Cl)c1N=S1(=O)CCCCC1 ?
Response given: 124 to 126 °C

Challenge: Then COC(=O)c1ccc(C(=O)c2cnn(C)c2O)cc1N=S1(=O)CCCCC1 ?
Response given: 133 to 137 °C

Challenge: // repeat for Cc1c(N=S2(=O)CCCCC2)cccc1C(=O)c1cnn(C)c1O and report
Response given: 166 to 168 °C
